# tested.target: A. suum QFR (complex II) (Ascaris suum, UniProt O44074+P92506+P92507)
# Construct: from tissue; host or cells: adult Ascaris suum muscle, mitochondrial fraction
# Sequence (Q33862 19-645): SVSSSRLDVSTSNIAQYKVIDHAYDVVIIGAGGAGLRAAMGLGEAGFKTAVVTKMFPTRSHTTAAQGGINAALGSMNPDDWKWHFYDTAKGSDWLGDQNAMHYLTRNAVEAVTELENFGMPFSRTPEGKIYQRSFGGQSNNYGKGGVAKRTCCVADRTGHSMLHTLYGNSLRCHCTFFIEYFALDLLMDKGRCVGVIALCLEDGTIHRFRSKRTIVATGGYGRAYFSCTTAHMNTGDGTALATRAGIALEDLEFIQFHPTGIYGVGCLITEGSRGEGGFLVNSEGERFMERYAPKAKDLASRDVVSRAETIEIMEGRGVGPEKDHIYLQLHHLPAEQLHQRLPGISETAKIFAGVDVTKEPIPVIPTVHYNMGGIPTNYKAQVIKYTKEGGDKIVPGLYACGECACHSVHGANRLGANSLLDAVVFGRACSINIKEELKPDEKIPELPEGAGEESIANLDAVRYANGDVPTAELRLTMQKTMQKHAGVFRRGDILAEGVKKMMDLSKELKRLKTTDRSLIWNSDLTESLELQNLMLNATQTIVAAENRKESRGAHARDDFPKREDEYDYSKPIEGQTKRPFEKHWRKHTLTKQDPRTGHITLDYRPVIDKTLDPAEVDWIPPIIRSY
# Sequence (P92507 26-156): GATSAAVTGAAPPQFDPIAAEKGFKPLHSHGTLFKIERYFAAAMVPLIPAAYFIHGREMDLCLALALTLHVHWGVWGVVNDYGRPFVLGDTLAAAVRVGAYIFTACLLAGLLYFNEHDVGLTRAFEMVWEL
# Sequence (P92506 32-188): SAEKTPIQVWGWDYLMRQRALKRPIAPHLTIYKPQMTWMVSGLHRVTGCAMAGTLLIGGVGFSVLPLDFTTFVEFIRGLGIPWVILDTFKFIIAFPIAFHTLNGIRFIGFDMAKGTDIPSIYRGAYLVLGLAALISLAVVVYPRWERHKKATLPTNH
# Sequence (O44074 22-282): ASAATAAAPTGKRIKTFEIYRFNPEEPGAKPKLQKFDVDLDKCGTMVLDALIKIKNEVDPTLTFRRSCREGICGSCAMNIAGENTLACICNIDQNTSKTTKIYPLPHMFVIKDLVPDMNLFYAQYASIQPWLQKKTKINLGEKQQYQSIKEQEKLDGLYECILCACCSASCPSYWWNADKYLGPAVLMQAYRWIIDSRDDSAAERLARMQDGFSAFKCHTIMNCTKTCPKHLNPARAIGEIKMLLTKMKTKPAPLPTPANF
# experimental.protocol: SQR activity assay of A. suum complex II (QFR) in mitochondrial fraction, UQ2 consumption at 278 nm
# Assay type: biochemical
Task for the reader: assign each of the following molecules its reported IC50.
Just the number in µM, nothing appended.

Query CC(C)Oc1cccc(NC(=O)c2ccccc2C(F)(F)F)c1 [flutolanil, reference compound] yields IC50 of 0.0581

Reported IC50 of CC(C)(C)c1ccc(CNC(=O)c2ccccc2C(F)(F)F)cc1 : 0.0055

For reference, reported IC50 for O=C(NCc1ccc(Cl)cc1Cl)c1ccccc1C(F)(F)F stands at 0.028

Sample Cc1ccccc1C(=O)Nc1cccc(OC(C)C)c1 ; IC50 observed: 0.515

Documented IC50 of O=C(Nc1cccc(-c2ccccc2)c1)c1ccccc1C(F)(F)F : 0.0245

// data source = paper PMC4519900
